Tested on: 926638-142-R-J1-PDC complex spheroid viability;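 also: spheroids exposed to drugs for one week before readout; percent viability relative to DMSO vehicle control wells set as 100%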
Assay: Anticancer human tumor 926638-142-R-J1-PDC patient-derived endometrial carcinoma cell line growth inhibition [POLQ]
Settings: second compound 0.0316 µM; first compound 0.316 µM; active compounds read low
Each entry below lists one item and its recorded viability, T/C value.
// return numeric value only (unit: %, not printed)

Below, 5 molecules whose answers are already recorded.
molecule="CCCS(=O)(=O)Nc1ccc(F)c(C(=O)c2c[nH]c3ncc(-c4ccc(Cl)cc4)cc23)c1F + Nc1ccc(C#CCN(C(=O)Cc2ncc(C(F)(F)F)cc2C(F)(F)F)c2ccc(F)cc2)nn1" observation_type="viability, T/C" value_measured=103
molecule="CC1COCCN1c1cc(C2(S(C)(=N)=O)CC2)nc(-c2ccnc3[nH]ccc23)n1 (stereo unspecified) + Cc1cccc(N(C)C(=O)C2C(O)CCN2c2nc(C)cc(C(F)(F)F)c2C#N)c1" observation_type="viability, T/C" value_measured=93.8
molecule="COc1cc2cc(C(=O)CCC(=O)O)sc2cc1OC + Cc1cccc(N(C)C(=O)C2C(O)CCN2c2nc(C)cc(C(F)(F)F)c2C#N)c1" observation_type="viability, T/C" value_measured=110
molecule="COc1ccc([C@@H](O)c2cc(-c3ncnc4cc(N5CCOCC5)ccc34)c(F)cc2Cl)nn1 + COC1C(OC(N)=O)C(O)C(Oc2ccc3c(O)c(NC(=O)c4ccc(O)c(CC=C(C)C)c4)c(=O)oc3c2C)OC1(C)C" observation_type="viability, T/C" value_measured=64
molecule="COc1cc(C2c3cc4c(cc3C(OC3OC5COC(C)OC5C(O)C3O)C3COC(=O)C23)OCO4)cc(OC)c1O (stereo unspecified) + Cc1cccc(N(C)C(=O)C2C(O)CCN2c2nc(C)cc(C(F)(F)F)c2C#N)c1" observation_type="viability, T/C" value_measured=72

Record CC1COCCN1c1cc(C2(O)CC3CCC(C2)O3)c2cnn(-c3ccn[nH]3)c2n1 (stereo unspecified) + Nc1ccc(C#CCN(C(=O)Cc2ncc(C(F)(F)F)cc2C(F)(F)F)c2ccc(F)cc2)nn1 . Reported viability, T/C: 40.1

Record Nc1ccn(C2OC(CO)C(O)C2(F)F)c(=O)n1 (stereo unspecified) + Cc1cccc(N(C)C(=O)C2C(O)CCN2c2nc(C)cc(C(F)(F)F)c2C#N)c1 . Reported viability, T/C: 54.9

Record C=CC(=O)N1CCN(c2nc(=O)n(-c3c(C)ccnc3C(C)C)c3nc(-c4c(O)cccc4F)c(F)cc23)C(C)C1 (stereo unspecified) + COC1C(OC(N)=O)C(O)C(Oc2ccc3c(O)c(NC(=O)c4ccc(O)c(CC=C(C)C)c4)c(=O)oc3c2C)OC1(C)C . Reported viability, T/C: 76.5

Record CCc1cc2c(N3CCc4c(cc(Cn5ccnc5)cc4-c4cn(C)nc4C(F)(F)F)C3=O)ccnc2c(OC)n1 + Cc1cccc(N(C)C(=O)C2C(O)CCN2c2nc(C)cc(C(F)(F)F)c2C#N)c1 . Reported viability, T/C: 46.7

Record CC(C)n1c(=O)n(C)c2cnc3cc(F)c(-c4ccc(OCCCN5CCCCC5)nc4)cc3c21 + COC1C(OC(N)=O)C(O)C(Oc2ccc3c(O)c(NC(=O)c4ccc(O)c(CC=C(C)C)c4)c(=O)oc3c2C)OC1(C)C . Reported viability, T/C: 131

Record COc1ccc([C@@H](O)c2cc(-c3ncnc4cc(N5CCOCC5)ccc34)c(F)cc2Cl)nn1 + Cc1cccc(N(C)C(=O)C2C(O)CCN2c2nc(C)cc(C(F)(F)F)c2C#N)c1 . Reported viability, T/C: 58.1
